# ASSAY TARGET: T1, formyl peptide receptor-like 1 (UniProt P25090 1-351, limits assumed)
# T1 sequence (looked up): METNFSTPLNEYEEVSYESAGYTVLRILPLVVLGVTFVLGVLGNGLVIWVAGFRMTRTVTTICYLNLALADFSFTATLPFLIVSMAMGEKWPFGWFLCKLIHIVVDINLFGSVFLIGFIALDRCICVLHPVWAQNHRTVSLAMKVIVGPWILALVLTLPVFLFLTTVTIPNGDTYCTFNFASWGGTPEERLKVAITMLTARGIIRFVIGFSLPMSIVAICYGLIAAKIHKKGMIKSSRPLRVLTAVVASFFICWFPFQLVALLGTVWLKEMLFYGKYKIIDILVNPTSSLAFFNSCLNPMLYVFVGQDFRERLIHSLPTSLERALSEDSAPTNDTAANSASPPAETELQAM
# ASSAY EXPLANATION: cell-based or functional assay
Where no end group is shown, it is not given here. [ ]: non-standard residue; d: D form.
VALUE KIND: EC50 of intracellular calcium increase in FPRL1-expressing RBL-2H3 cells (fura-2) (nM)

WKFMV[dM]-NH2 (N-terminus assumed; SMILES CSCC[C@H](NC(=O)[C@H](Cc1ccccc1)NC(=O)[C@H](CCCCN)NC(=O)[C@@H](N)Cc1c[nH]c2ccccc12)C(=O)N[C@H](C(=O)N[C@H](CCSC)C(N)=O)C(C)C) [Trp-Lys-Phe-Met-Val-D-Met-NH2] ... 0.23
WKYMVR-NH2 [Trp-Lys-Tyr-Met-Val-Arg-NH2] ... 178
WHYMV[dM]-NH2 (N-terminus assumed; SMILES CSCC[C@H](NC(=O)[C@H](Cc1ccc(O)cc1)NC(=O)[C@H](Cc1c[nH]cn1)NC(=O)[C@@H](N)Cc1c[nH]c2ccccc12)C(=O)N[C@H](C(=O)N[C@H](CCSC)C(N)=O)C(C)C) [Trp-His-Tyr-Met-Val-D-Met-NH2] ... 0.72
WKYMVV-NH2 [Trp-Lys-Tyr-Met-Val-Val-NH2] ... 1260
WRYMV[dM]-NH2 (N-terminus assumed; SMILES CSCC[C@H](NC(=O)[C@H](Cc1ccc(O)cc1)NC(=O)[C@H](CCCNC(=N)N)NC(=O)[C@@H](N)Cc1c[nH]c2ccccc12)C(=O)N[C@H](C(=O)N[C@H](CCSC)C(N)=O)C(C)C) [Trp-Arg-Tyr-Met-Val-D-Met-NH2] ... 0.12
WKYMVG-NH2 [Trp-Lys-Tyr-Met-Val-Gly-NH2] ... 5950
WKYMY[dM]-NH2 (N-terminus assumed; SMILES CSCC[C@H](NC(=O)[C@H](Cc1ccc(O)cc1)NC(=O)[C@H](CCCCN)NC(=O)[C@@H](N)Cc1c[nH]c2ccccc12)C(=O)N[C@@H](Cc1ccc(O)cc1)C(=O)N[C@H](CCSC)C(N)=O) [Trp-Lys-Tyr-Met-Tyr-D-Met-NH2] ... 0.29
WKDMV[dM]-NH2 (N-terminus assumed; SMILES CSCC[C@H](NC(=O)[C@H](CC(=O)O)NC(=O)[C@H](CCCCN)NC(=O)[C@@H](N)Cc1c[nH]c2ccccc12)C(=O)N[C@H](C(=O)N[C@H](CCSC)C(N)=O)C(C)C) [Trp-Lys-Asp-Met-Val-D-Met-NH2] ... 8.73
WKYMV-NH2 [Trp-Lys-Tyr-Met-Val-NH2] ... 918
WKWMV[dM]-NH2 (N-terminus assumed; SMILES CSCC[C@H](NC(=O)[C@H](Cc1c[nH]c2ccccc12)NC(=O)[C@H](CCCCN)NC(=O)[C@@H](N)Cc1c[nH]c2ccccc12)C(=O)N[C@H](C(=O)N[C@H](CCSC)C(N)=O)C(C)C) [Trp-Lys-Trp-Met-Val-D-Met-NH2] ... 0.16
WKYMG[dM]-NH2 (N-terminus assumed; SMILES CSCC[C@H](NC(=O)[C@H](Cc1ccc(O)cc1)NC(=O)[C@H](CCCCN)NC(=O)[C@@H](N)Cc1c[nH]c2ccccc12)C(=O)NCC(=O)N[C@H](CCSC)C(N)=O) [Trp-Lys-Tyr-Met-Gly-D-Met-NH2] ... 18.1
WKGMV[dM]-NH2 (N-terminus assumed; SMILES CSCC[C@H](NC(=O)CNC(=O)[C@H](CCCCN)NC(=O)[C@@H](N)Cc1c[nH]c2ccccc12)C(=O)N[C@H](C(=O)N[C@H](CCSC)C(N)=O)C(C)C) [Trp-Lys-Gly-Met-Val-D-Met-NH2] ... 21.3
WKYMVE-NH2 [Trp-Lys-Tyr-Met-Val-Glu-NH2] ... 503
WEYMV[dM]-NH2 (N-terminus assumed; SMILES CSCC[C@H](NC(=O)[C@H](Cc1ccc(O)cc1)NC(=O)[C@H](CCC(=O)O)NC(=O)[C@@H](N)Cc1c[nH]c2ccccc12)C(=O)N[C@H](C(=O)N[C@H](CCSC)C(N)=O)C(C)C) [Trp-Glu-Tyr-Met-Val-D-Met-NH2] ... 5.23
WKRMV[dM]-NH2 (N-terminus assumed; SMILES CSCC[C@H](NC(=O)[C@H](CCCNC(=N)N)NC(=O)[C@H](CCCCN)NC(=O)[C@@H](N)Cc1c[nH]c2ccccc12)C(=O)N[C@H](C(=O)N[C@H](CCSC)C(N)=O)C(C)C) [Trp-Lys-Arg-Met-Val-D-Met-NH2] ... 2.06

Taken from patent US20070219139A1.
